Species: Rattus norvegicus
experiment-summary: Open TG-GATES - Regimen: Daily Repeat
Type: toxicity, organism-based, Sprague-Dawley
Design: regimen Daily Repeat, gender Male, age 6 weeks
condition-info: in vivo, po, 10 mg/kg, 72 h, tissue Plasma, route gavage, dose level Low, time 3 day
Would you mind telling me the reported CRE of each entry?
Numbers only, in mg/dL.

Worked examples follow.
CN(C)CCCN1c2ccccc2CCc2ccccc21 [IMIPRAMINE]	0.2
CC1=C(/C=C/C(C)=C/C=C/C(C)=C/CO)C(C)(C)CCC1 [RETINOL]	0.1
CC(C)OC(=O)C(C)(C)Oc1ccc(C(=O)c2ccc(Cl)cc2)cc1 [FENOFIBRATE]	0.2

Read the next record carefully.
Form field: reported CRE of `CN(C)CCN(Cc1cccs1)c1ccccn1`
0.2

* * *

Organism: Rattus norvegicus
experiment-summary: Open TG-GATES - Regimen: Single
Assay type: toxicity, organism-based, Sprague-Dawley
Parameters: regimen Single, gender Male, age 6 weeks
condition-info: in vivo, po, 10 mg/kg, 3 h, tissue Plasma, route gavage, dose level Low
assay-readout: AST (IU/L)
One number for each entry, in IU/L.

# example entries with known answers
CN(C)CCCN1c2ccccc2CCc2ccc(Cl)cc21 [CLOMIPRAMINE]	75.8
CC(C)OC(=O)C(C)(C)Oc1ccc(C(=O)c2ccc(Cl)cc2)cc1 [FENOFIBRATE]	83.6
CN(C)CCCN1c2ccccc2CCc2ccccc21 [IMIPRAMINE]	76.8
CN(C)CCN(Cc1cccs1)c1ccccn1	77.8

// below: AST requested for another compound
Consider the compound shown here: CC1=C(/C=C/C(C)=C/C=C/C(C)=C/CO)C(C)(C)CCC1 [RETINOL] What is its recorded AST?
75.2

* * *

Record form. Attribute: TC. Fill in for each entry.
Species: Rattus norvegicus
experiment-summary: Open TG-GATES - Regimen: Daily Repeat
Format: toxicity, organism-based, Sprague-Dawley
Design: regimen Daily Repeat, gender Male, age 6 weeks
condition-info: in vivo, po, 10 mg/kg, […], tissue Plasma, route gavage, dose level Low, time 7 day
Number first, unit second.

CC(C)OC(=O)C(C)(C)Oc1ccc(C(=O)c2ccc(Cl)cc2)cc1 [FENOFIBRATE]	65.6 mg/dL
CC1=C(/C=C/C(C)=C/C=C/C(C)=C/CO)C(C)(C)CCC1	76.4 mg/dL
CN(C)CCCN1c2ccccc2CCc2ccccc21	75.8 mg/dL

Please examine the following record next.
Give its TC value. Item: `CN(C)CCN(Cc1cccs1)c1ccccn1`
63.2 mg/dL

* * *

Exercise: state measured Eos for each of the compounds provided.
Species on record: Rattus norvegicus
experiment-summary: Open TG-GATES - Regimen: Single
Assay type: toxicity, organism-based, Sprague-Dawley
Parameters: regimen Single, gender Male, age 6 weeks
condition-info: in vivo, po, 30 mg/kg, 3 h, tissue Blood, route gavage, dose level Middle
Give bare numbers, in %.

CC1=C(/C=C/C(C)=C/C=C/C(C)=C/CO)C(C)(C)CCC1	1.2
CN(C)CCCN1c2ccccc2CCc2ccccc21	1

// each listed compound needs a value for Eos
1. CN(C)CCCN1c2ccccc2CCc2ccc(Cl)cc21
2. CN(C)CCN(Cc1cccs1)c1ccccn1

0.6
0.6

* * *

Would you kindly list PL for each of these compounds?
Species on record: Rattus norvegicus
experiment-summary: Open TG-GATES - Regimen: Daily Repeat
Format: toxicity, organism-based, Sprague-Dawley
Design: regimen Daily Repeat, gender Male, age 6 weeks
condition-info: in vivo, po, 100 mg/kg, […], tissue Plasma, route gavage, dose level Low, time 14 day
Answers are plain numbers, in mg/dL.

Reference set (3 entries):
CCOC(=O)CCC(=O)O[C@H]1[C@H](O[C@@H]2[C@@H](C)[C@H](O[C@H]3C[C@@](C)(OC)[C@@H](O)[C@H](C)O3)[C@@H](C)C(=O)O[C@H](CC)[C@@](C)(O)[C@H](O)[C@@H](C)C(=O)[C@H](C)C[C@@]2(C)O)O[C@H](C)C[C@@H]1N(C)C [ERYTHROMYCIN ETHYLSUCCINATE]	150.2
CCOc1ccc(NC(=O)CC(C)O)cc1 (stereo not given)	159.2
NC(N)=Nc1nc(CSCCC(N)=NS(N)(=O)=O)cs1	141.2

List the reported PL of each compound below.
1. COc1ccc2[nH]c([S+]([O-])Cc3ncc(C)c(OC)c3C)nc2c1 (stereo not given)
2. COC1=CC(=O)C[C@@H](C)[C@]12Oc1c(Cl)c(OC)cc(OC)c1C2=O

1: 145.8; 2: 138.8
